biological target: Tyrosine-protein kinase JAK2 (Homo sapiens); test: Binding affinity to recombinant human JAK2 kinase domain by fluorescence polarization assay
Sequence (O60674 whole entry, the tested form may be a part): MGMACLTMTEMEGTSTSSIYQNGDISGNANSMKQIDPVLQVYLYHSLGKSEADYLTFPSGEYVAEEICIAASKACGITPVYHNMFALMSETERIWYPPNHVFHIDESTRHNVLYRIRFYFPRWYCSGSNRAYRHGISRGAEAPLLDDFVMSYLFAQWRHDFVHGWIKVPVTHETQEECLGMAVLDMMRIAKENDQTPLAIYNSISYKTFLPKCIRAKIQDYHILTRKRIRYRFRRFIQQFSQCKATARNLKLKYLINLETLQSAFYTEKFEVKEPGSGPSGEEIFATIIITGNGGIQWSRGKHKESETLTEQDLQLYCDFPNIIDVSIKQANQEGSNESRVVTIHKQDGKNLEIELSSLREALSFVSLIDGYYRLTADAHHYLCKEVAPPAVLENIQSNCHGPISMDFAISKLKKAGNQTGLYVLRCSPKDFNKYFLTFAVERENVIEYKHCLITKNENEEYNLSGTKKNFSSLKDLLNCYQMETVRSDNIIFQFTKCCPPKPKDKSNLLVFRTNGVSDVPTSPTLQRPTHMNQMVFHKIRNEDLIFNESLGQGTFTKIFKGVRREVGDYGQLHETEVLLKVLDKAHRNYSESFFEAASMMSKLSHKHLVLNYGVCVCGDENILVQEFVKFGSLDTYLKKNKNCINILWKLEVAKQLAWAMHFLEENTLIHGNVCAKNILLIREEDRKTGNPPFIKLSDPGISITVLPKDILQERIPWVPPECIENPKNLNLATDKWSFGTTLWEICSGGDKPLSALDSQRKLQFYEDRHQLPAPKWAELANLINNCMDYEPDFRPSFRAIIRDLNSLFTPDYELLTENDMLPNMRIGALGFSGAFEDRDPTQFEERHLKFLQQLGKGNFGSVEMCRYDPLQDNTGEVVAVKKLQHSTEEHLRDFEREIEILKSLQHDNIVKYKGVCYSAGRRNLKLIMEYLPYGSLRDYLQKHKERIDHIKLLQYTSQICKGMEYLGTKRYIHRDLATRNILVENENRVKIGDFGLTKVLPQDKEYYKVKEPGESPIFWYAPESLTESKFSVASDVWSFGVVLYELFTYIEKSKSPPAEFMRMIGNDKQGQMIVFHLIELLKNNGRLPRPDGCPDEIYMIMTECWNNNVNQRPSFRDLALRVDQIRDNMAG
I'd appreciate it if you could supply Kd values for the items below.
Please answer in the form of a number followed by its unit of measurement.

Q: Report Kd from Tyrosine-protein kinase JAK2 (Homo sapiens) testing of CCS(=O)(=O)N1CCN(c2ccc(Nc3ncc(C(N)=O)c(NC4CC4)n3)cc2)CC1 [CERDULATINIB]
Ans: 4.8 nM

Q: Enter measured Kd, system Tyrosine-protein kinase JAK2 (Homo sapiens), for the molecule shown: Cc1cc(Nc2cc(CN3CCOCC3)c3nc(C)c(Cc4ccc(Cl)cc4F)n3n2)n[nH]1 [GANDOTINIB]
Ans: 11 nM

Q: Write down the reported Kd (system: Tyrosine-protein kinase JAK2 (Homo sapiens)) of N#CCC1(n2cc(-c3ncnc4[nH]ccc34)cn2)CN(C2CCN(C(=O)c3ccnc(C(F)(F)F)c3F)CC2)C1 [ITACITINIB]
Ans: 26 nM

Q: Under Tyrosine-protein kinase JAK2 (Homo sapiens): report Kd of C[C@H](Nc1cc(-c2cnn(C)c2)cc(Nc2cnccn2)n1)c1ccc(F)cc1 [NS-018] .
Ans: 4.5 nM

Source: ChEMBL document CHEMBL5500392
